Entry source: the NIST ThermoML archive (doi:10.1016/j.fluid.2013.11.008)

Details: 298.15 K; 101.33 kPa; Liquid; Pycnometric method
# mass density values compiled below
Reply with just the number (in kg/m3).

input: Reported mass density for CCO : what is it?
output: 786.4

input: Consider next the molecule CC(C)O in the same way.
output: 782.7

input: Consider next the molecule CCCCO in the same way.
output: 805.5

input: Consider next the molecule CO in the same way.
output: 785.9
